assay: Binding affinity to Influenza A virus A/WSN/33 (H1N1) HA1 protein by surface plasmon resonance assay; parameters: species or system Influenza A virus (A/WSN/1933(H1N1))
OBSERVED_PROPERTY: Kd (µM)

[[record]]
smiles_code = "CCCc1cc(O)c(Cl)c(OC)c1Oc1c(Cl)c(O)c(Cl)c2c1C(=O)O[C@@H]2CC"
result_value = 55


* * *

test system: Influenza A virus (A/WSN/1933(H1N1)); experiment: Binding affinity to Influenza A virus A/WSN/33 (H1N1) HA1 protein assessed as decrease in protein affinity to sialic acid receptor at 1.25 uM by surface plasmon resonance assay
Each entry below carries its recorded Activity.
OBSERVED_PROPERTY: Activity (RU)

[[record]]
smiles_code = "CCOC(=O)c1c(CSc2ccccc2)n(C)c2cc(Br)c(O)c(CN(C)C)c12"
result_value = 1.2

[[record]]
smiles_code = "CCCc1cc(O)cc(OC)c1Oc1c(Cl)c(O)c(Cl)c2c1C(=O)O[C@@H]2CC"
result_value = 7

[[record]]
smiles_code = "COc1cc(/C=C/C(=O)CC(=O)/C=C/c2ccc(O)c(OC)c2)ccc1O"
result_value = 2.7

[[record]]
smiles_code = "CCCc1c(Cl)c(O)cc(OC)c1Oc1c(Cl)c(O)c(Cl)c2c1C(=O)O[C@@H]2CC"
result_value = 5.4

